target: Jak2 (UniProt O60674); test: phosphorylation enrichment, bacterial display (enrichment ratio); higher = better substrate or ligand; peptides without Tyr show the background;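 also: 11-residue human phosphosite peptides and single-mutation variants displayed on the E. coli surface, counted by deep sequencing, each peptide's frequency after selection divided by its frequency in the unselected input library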;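 also: frequency after pTyr selection over input frequency; kinase dosed for 20-30% of maximal phosphorylation in three min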
Sequence (O60674 whole entry, looked up): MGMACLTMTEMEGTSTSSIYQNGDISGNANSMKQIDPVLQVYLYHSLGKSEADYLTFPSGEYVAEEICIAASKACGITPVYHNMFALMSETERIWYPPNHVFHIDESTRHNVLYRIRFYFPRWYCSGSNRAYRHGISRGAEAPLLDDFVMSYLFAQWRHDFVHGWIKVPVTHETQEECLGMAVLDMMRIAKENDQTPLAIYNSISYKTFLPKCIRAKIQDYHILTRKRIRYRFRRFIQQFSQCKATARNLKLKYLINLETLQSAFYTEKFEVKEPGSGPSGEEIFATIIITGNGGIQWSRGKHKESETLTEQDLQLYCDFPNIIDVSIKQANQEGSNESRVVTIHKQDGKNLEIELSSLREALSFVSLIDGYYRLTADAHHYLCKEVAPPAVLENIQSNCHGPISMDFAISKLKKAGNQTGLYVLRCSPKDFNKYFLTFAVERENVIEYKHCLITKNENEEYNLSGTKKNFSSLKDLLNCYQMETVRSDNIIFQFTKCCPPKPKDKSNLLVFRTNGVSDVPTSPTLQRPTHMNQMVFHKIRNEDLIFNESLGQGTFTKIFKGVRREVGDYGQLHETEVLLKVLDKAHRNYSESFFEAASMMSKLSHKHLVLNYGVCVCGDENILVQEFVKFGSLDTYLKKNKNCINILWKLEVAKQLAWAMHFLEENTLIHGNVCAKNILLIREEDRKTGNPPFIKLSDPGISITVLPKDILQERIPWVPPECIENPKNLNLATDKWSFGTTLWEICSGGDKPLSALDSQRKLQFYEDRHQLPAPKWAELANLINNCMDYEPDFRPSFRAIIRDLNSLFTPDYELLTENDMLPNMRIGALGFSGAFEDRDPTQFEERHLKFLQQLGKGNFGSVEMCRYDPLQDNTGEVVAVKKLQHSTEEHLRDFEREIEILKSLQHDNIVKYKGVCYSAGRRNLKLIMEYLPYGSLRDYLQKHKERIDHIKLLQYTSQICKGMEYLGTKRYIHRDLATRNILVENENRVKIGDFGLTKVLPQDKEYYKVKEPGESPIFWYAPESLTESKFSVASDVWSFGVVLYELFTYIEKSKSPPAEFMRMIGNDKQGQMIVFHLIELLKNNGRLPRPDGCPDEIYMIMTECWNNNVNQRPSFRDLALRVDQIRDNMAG
Below, each of the sequences is paired with its reported phosphorylation enrichment value.
I only need the number, thanks.

These solved cases illustrate the format of a correct answer.
# Ordered residues, phosphorylation enrichment
measured = [
    ("LRAGVYPEKDQ [DNM2_Y626]", 0.773),
    ("NKYTTYLPRLP [C9orf24_Y126]", 0.706),
    ("QRIHDYYEHRY [HCN4_Y554]", 0.794),
    ("ITNLLYHLVGW [GBA_Y412_V414L]", 1.47),
    ("PPAPRYHDSAV [LZTR1_Y119_H121D]", 0.979),
]

query: GET /values?readout=phosphorylation enrichment&system=Jak2 (UniProt O60674)&item= SRDDFYETIAM [NPY1R_Y347_D346Y_YF]
result: 1.23

query: Query INSLKYAFNVS [EIF2B5_Y583_I587V_YF] next
result: 0.771

query: Query DAASNYARGHF [TUBA3E_Y103_YF] next
result: 0.604

query: Query QHNPEYVQQAS [LRRC7_Y1058] next
result: 0.544

query: Query ESKKHYGYSLY [ANXA3_Y295_F291S] next
result: 0.551

query: Query MCITQYKRESQ [PRNP_Y218_E219K] next
result: 0.736

query: Query RAILLYEFVGK [NATD1_Y45_V42I_YF] next
result: 3.76

query: Query QLLIEYPPEEV [ZZZ3_Y670_K669E] next
result: 1.27

query: Query QHVPDYRQNVF [PCDHGA1_Y890_YF] next
result: 0.991

query: Query GGDGSYVSVPS [TNNI3K_Y425] next
result: 0.495

query: Query EKEQNYDLTQV [ECD_Y448_E452Q] next
result: 1.07

query: Query FQLENYCNGGG [INS_Y108_YF] next
result: 2.44

query: Query QKPLDYFRVNL [GALE_Y104_YF] next
result: 8.52

Cited source for all entries: the supplement of paper PMC10065799
